Read-out: Lipoprotein lipase (LPL), LPL (gene 4023)
assay-overview: LTEA_HepaRG_LPL: Life Technologies and Expression Analysis (LTEA) Assay for Lipoprotein lipase (LPL) using HepaRG (AID 2283515)
assay-conditions: mRNA level, 48 h; actives raise or lower the signal
Active and inactive are the calls of the source. Rule for the calls: active = hit-call score of the fitted dose curve at least 0.9, where 1 is the maximum; inactive = score below 0.9.

{"molecule": "CC(C)(C)c1ccccc1", "AC50": "inactive"}
{"molecule": "CCCCC(CC)CO (stereo not drawn)", "AC50": "inactive"}
{"molecule": "Oc1ccc(O)cc1", "AC50": "inactive"}
{"molecule": "CCCCCCC(CCCCCCCCCCC(=O)OCC(COC(C)=O)OC(C)=O)OC(C)=O (stereo not drawn)", "AC50": "inactive"}
{"molecule": "CS(=O)(=O)c1ccc([C@@H](C[C@H]2CCC(=O)C2)C(=O)Nc2cnccn2)cc1Cl", "AC50": "0.934 µM (active)"}
{"molecule": "C/C=C/C=C/C(=O)O", "AC50": "inactive"}
{"molecule": "Cn1cnc2c1c(=O)[nH]c(=O)n2C", "AC50": "inactive"}
{"molecule": "Nc1nc(=S)c2[nH]cnc2[nH]1", "AC50": "19.1 µM (active)"}

---

Read-out: Macrophage colony-stimulating factor (MCSF), CSF1 (gene 1435)
assay-overview: BSK_LPS_MCSF: BioMAP Diversity Plus: LPS Assay for Macrophage colony-stimulating factor (MCSF) Biomarker Activity (AID 2283083)
assay-conditions: primary human HUVEC with PBMC; actives raise or lower the signal
Active and inactive are the calls of the source. The calls were made as follows: active = hit-call score of the fitted dose curve at least 0.9, where 1 is the maximum; inactive = score below 0.9.
Classes used: y (active), n (inactive)

{"compound": "O=C(O)c1cccnc1", "group-label": "n"}
{"compound": "CC(=O)CC(c1ccccc1)c1c(O)c2ccccc2oc1=O (stereo not given)", "group-label": "n"}
{"compound": "O=C1OC(c2ccc(O)cc2)(c2ccc(O)cc2)c2ccccc21", "group-label": "y"}
{"compound": "CSc1ccc(Oc2ccc(S(N)(=O)=O)cc2CN(C)C)cc1C", "group-label": "n"}
{"compound": "CCCCCCCC(=O)OC", "group-label": "n"}
{"compound": "C=CCc1ccc(OC)c(OC)c1", "group-label": "n"}
{"compound": "N[C@@H](Cc1c[nH]c2ccccc12)C(=O)O", "group-label": "n"}
{"compound": "O=NO", "group-label": "n"}
{"compound": "Cc1ccc(-c2cc(C(F)(F)F)nn2-c2ccc(S(N)(=O)=O)cc2)cc1", "group-label": "y"}
{"compound": "CN(C)CCCN(C)CCCN(C)C", "group-label": "n"}
{"compound": "CCCCCCC(CCCCCCCCCCC(=O)OCC(COC(C)=O)OC(C)=O)OC(C)=O (stereo not given)", "group-label": "n"}
{"compound": "C/C=C/c1ccc(OC)cc1", "group-label": "n"}
{"compound": "Cc1cc(SC2=C(O)C[C@@](CCc3ccc(N)cc3)(C(C)C)OC2=O)c(C(C)(C)C)cc1CO", "group-label": "n"}
{"compound": "CC1(C)C(=O)NC(=O)N1CO", "group-label": "n"}
{"compound": "COC(=O)[C@H]1[C@H]2C[C@@H]3c4[nH]c5cc(OC)ccc5c4CCN3C[C@H]2C[C@@H](OC(=O)c2cc(OC)c(OC)c(OC)c2)[C@@H]1OC", "group-label": "y"}
